As shown below, each of these compounds has a reported MIC value.
- System: Klebsiella pneumoniae KPN+19-15
- Assay type: cell-based
- MEASUREMENT SETUP: KPN+19-15
Bridge positions count the residues as written; N and C are the ends. Square brackets hold non-standard residues; d marks the D form. Peptide text beside a SMILES is read from it. * marks the point of attachment. Heptanoyl(6-Me) = CC(C)CCCCC(=O)*; dOrn = NCCC[C@@H](N)C(=O)O; dDab = NCC[C@@H](N)C(=O)O; Heptanoyl = CCCCCCC(=O)*; Octanoyl = CCCCCCCC(=O)*; dDap = NC[C@@H](N)C(=O)O; Dab = NCC[C@H](N)C(=O)O; Dap = NC[C@H](N)C(=O)O
Note: a bare number is incomplete; add the unit.

- COMPOUND: "CC(C)CCCCC(=O)N[C@@H](CCN)C(=O)N[C@H](C(=O)N[C@H](CN)C(=O)N[C@H]1CCNC(=O)[C@H]([C@@H](C)O)NC(=O)[C@H](CCN)NC(=O)[C@H](CCN)NC(=O)[C@H](CC(C)C)NC(=O)[C@@H](Cc2ccccc2)NC(=O)[C@H](CCN)NC1=O)[C@@H](C)O [Compound 32] ({Heptanoyl(6-Me)}-[Dab]T[dDap][Dab][Dab][dF]L[Dab][Dab]T; lactam 4-C)"
  MIC: "0.03 µg/mL"

Query string: Which value of MIC has been reported for CC(C)CCCCC(=O)N[C@@H](CCN)C(=O)N[C@H](C(=O)N[C@H](CO)C(=O)N[C@H]1CCNC(=O)[C@H]([C@@H](C)O)NC(=O)[C@H](CCN)NC(=O)[C@H](CCN)NC(=O)[C@H]([C@@H](C)O)NC(=O)[C@@H](Cc2ccccc2)NC(=O)[C@H](CN)NC1=O)[C@@H](C)O [Compound 62] ({Heptanoyl(6-Me)}-[Dab]T[dS][Dab][Dap][dF]T[Dab][Dab]T; lactam 4-C) in the records?
Result string: 0.5 µg/mL

Query string: Follow-up entry: CCCCCCCC(=O)N[C@@H](CCN)C(=O)N[C@H](C(=O)N[C@H](CO)C(=O)N[C@H]1CCNC(=O)[C@H]([C@@H](C)O)NC(=O)[C@H](CCN)NC(=O)[C@H](CN)NC(=O)[C@H]([C@@H](C)O)NC(=O)[C@@H](Cc2ccccc2)NC(=O)[C@H](CCN)NC1=O)[C@@H](C)O [Compound 73] (Octanoyl-[Dab]T[dS][Dab][Dab][dF]T[Dap][Dab]T; lactam 4-C)
Result string: 0.5 µg/mL

Query string: Follow-up entry: CCCCCCC(=O)N[C@@H](CN)C(=O)N[C@H](C(=O)N[C@H](CCN)C(=O)N[C@H]1CCNC(=O)[C@H]([C@@H](C)O)NC(=O)[C@H](CCN)NC(=O)[C@H](CCN)NC(=O)[C@H](CC(C)C)NC(=O)[C@@H](Cc2ccccc2)NC(=O)[C@H](CCN)NC1=O)[C@@H](C)O [Compound 94] (Heptanoyl-[Dap]T[dDab][Dab][Dab][dF]L[Dab][Dab]T; lactam 4-C)
Result string: 0.03 µg/mL

Query string: Follow-up entry: CC(C)CCCCC(=O)N[C@@H](CCN)C(=O)N[C@H](C(=O)N[C@H](CCCN)C(=O)N[C@H]1CCNC(=O)[C@H]([C@@H](C)O)NC(=O)[C@H](CCN)NC(=O)[C@H](CCN)NC(=O)[C@H](CC(C)C)NC(=O)[C@@H](Cc2ccccc2)NC(=O)[C@H](CCN)NC1=O)[C@@H](C)O [Compound 42] ({Heptanoyl(6-Me)}-[Dab]T[dOrn][Dab][Dab][dF]L[Dab][Dab]T; lactam 4-C)
Result string: 0.125 µg/mL

Attribution: patent EP4725957A1
